biological target: Gag-Pol polyprotein [588-1127,Y768C]/[588-1147,Y768C] (Human immunodeficiency virus 1, UniProt P04585, Y768C); assay: HIV-1 RT Assay; details: pH 8.2
pIC50: −log10 of the molar value.

{"compound": "CC(C)=CCN1Cc2cc(Cl)cc3[nH]c(=S)n(c23)C[C@@H]1C", "pIC50": 4.40}
{"compound": "NC(=O)c1[nH]c2ccc(Cl)cc2c1[S+]([O-])c1ccccc1 (stereo not given)", "pIC50": 5.86}
{"compound": "NC(=O)c1[nH]c2ccc(Cl)cc2c1S(=O)(=O)c1ccccc1", "pIC50": 7.15}
{"compound": "[O-][S+](Cc1[nH]c2ccccc2c1Sc1ccccc1)c1ccccc1 (stereo not given)", "pIC50": 5.52}
{"compound": "NC(=O)c1[nH]c2ccc(Cl)cc2c1Sc1ccccc1", "pIC50": 5.98}

====

Values of IC50 reported for Gag-Pol polyprotein [588-1027]/[588-1147] (Human immunodeficiency virus 1) appear below.

{"compound": "COC(=O)c1[nH]c2ccccc2c1Sc1ccccc1", "IC50, nM": 2500}
{"compound": "NC(=O)c1[nH]c2ccc(Cl)cc2c1S(=O)(=O)c1ccccc1", "IC50, nM": 3}
{"compound": "NC(=O)c1[nH]c2ccc(Cl)cc2c1[S+]([O-])c1ccccc1 (stereo not drawn)", "IC50, nM": 23}

These data points were gathered from BindingDB's records for doi:10.1021/jm00061a022.
